pIC50: −log10 of the molar value.
pIC50 for Serine/threonine-protein kinase PAK 4 (Homo sapiens, UniProt O96013) - collated from the literature.

Recorded pIC50, per entry:
[
  {
    "Structure Smiles String": "Cc1cnc(-c2ccc(Cl)c(-c3cc4cnc(Nc5ccc(C6CCN(C)CC6)cc5)nc4n(C)c3=O)c2)s1",
    "pIC50": "≤ 5.30"
  },
  {
    "Structure Smiles String": "CCN1CCC(c2ccc(Nc3ncc4cc(-c5ccc(-c6cnc(C)s6)cc5Cl)c(=O)n(CC)c4n3)cc2)CC1",
    "pIC50": "5.30 to 6.30"
  },
  {
    "Structure Smiles String": "CCn1c(=O)c(-c2ccc(-c3noc(C(F)(F)F)n3)cc2Cl)cc2cnc(Nc3ccc(N4CCN(C)CC4)cc3)nc21",
    "pIC50": "≤ 5.30"
  }
]

Identify measured pIC50 corresponding to `CN1CCN(c2ccc(Nc3ncc4ccc(=O)n(Cc5c(F)cccc5Cl)c4n3)cc2)CC1` > 6.00

For the compound `CCn1c(=O)c(-c2ccc(-c3cccnc3F)cc2Cl)cc2cnc(Nc3ccc(C4CCNCC4)cc3)nc21` , report pIC50. 6.30 to 7.30

Give a short answer stating reported pIC50 for `CN1CCN(c2ccc(Nc3ncc4ccc(=O)n(Cc5c(Cl)cccc5C5CC5)c4n3)cc2)CC1` . 5.00 to 6.00

Provide pIC50 value for the following compound: `CN1CCC(c2ccc(Nc3ncc4ccc(=O)n(Cc5c(F)cccc5C5CC5)c4n3)cc2)CC1` 6.30 to 7.30

Tell me its pIC50 given `CCn1c(=O)c(-c2ccc(-c3noc(C)n3)cc2Cl)cc2cnc(Nc3ccc(CCN4CCOCC4)cc3)nc21` as the entry. ≤ 5.30

* * *

Target or system Serine/threonine-protein kinase PAK 4 (Homo sapiens); metric IC50; compiled from varied reports.

[
  {
    "Structure Smiles String": "CCn1c(=O)c(-c2ccc(-c3cnc(C)s3)cc2Cl)cc2cnc(Nc3ccc(C4CCNCC4)cc3)nc21",
    "Experimental System": "Serine/threonine-protein kinase PAK 4 (Homo sapiens)",
    "IC50": "0.5 to 5 µM"
  }
]

Give me measured IC50, please, for this molecule: `CN1CCN(c2ccc(Nc3ncc4ccc(=O)n(Cc5ccccc5-c5cccs5)c4n3)cc2)CC1` 1 to 10 µM

Return IC50 for the following molecule: `CN1CCC(c2ccc(Nc3ncc4cc(-c5cc(-c6cccnc6)ccc5Cl)c(=O)n(C)c4n3)cc2)CC1` ≥ 5 µM

Please report IC50 for the following molecule: `CCn1c(=O)c(-c2ccc(-c3cccnc3C)cc2Cl)cc2cnc(Nc3ccc(C4CCNCC4)c(F)c3)nc21` 0.5 to 5 µM

* * *

pIC50: −log10 of the molar value.
Record set: pIC50 | Serine/threonine-protein kinase PAK 4 (Homo sapiens, UniProt O96013) | literature, multiple sources.

Here's what some known entries look like.
[
  {
    "Structure Smiles String": "CN1CCN(c2ccc(Nc3nccc(-c4ccc(NCCCN)nc4)n3)cc2)CC1",
    "pIC50": "5.00 to 6.00"
  },
  {
    "Structure Smiles String": "CC(=O)Nc1ccnc(-c2ccc(Cl)c(-c3cc4cnc(Nc5ccc(C6CCN(C)CC6)cc5)nc4n(C)c3=O)c2)n1",
    "pIC50": "≤ 5.30"
  },
  {
    "Structure Smiles String": "CCn1c(=O)c(-c2ccc(-c3noc(C)n3)cc2Cl)cc2cnc(Nc3ccc(C4CCN(C)CC4)c(F)c3)nc21",
    "pIC50": "5.30 to 6.30"
  }
]

Give pIC50 for `CNc1ncc2cc(-c3cc(NC(=O)c4cc(S(C)(=O)=O)n(-c5ccc(F)cc5)n4)ccc3Cl)c(=O)n(C)c2n1` tested on Serine/threonine-protein kinase PAK 4 (Homo sapiens, UniProt O96013). 5.00 to 6.00

* * *

Literature-derived pIC50 for Serine/threonine-protein kinase PAK 4 (Homo sapiens, UniProt O96013) follows.
pIC50: −log10 of the molar value.

Worked set:
[
  {
    "Structure Smiles String": "CCn1c(=O)c(-c2ccc(-c3nnco3)cc2Cl)cc2cnc(Nc3ccc(N4CCN(C)CC4)cc3)nc21",
    "Test Value": "5.30 to 6.30"
  },
  {
    "Structure Smiles String": "CN1CCN(c2ccc(Nc3ncc4ccc(=O)n(Cc5occc5C5CC5)c4n3)cc2)CC1",
    "Test Value": "5.30 to 6.30"
  },
  {
    "Structure Smiles String": "CCn1c(=O)c(-c2ccc(-c3noc(C)n3)cc2Cl)cc2cnc(Nc3ccc(CCN4CCCC4)cc3)nc21",
    "Test Value": "5.30 to 6.30"
  },
  {
    "Structure Smiles String": "CCn1c(=O)c(-c2ccc(-c3ccc(C(=O)NC)nc3)cc2Cl)cc2cnc(Nc3ccc(C4CCN(C)CC4)cc3)nc21",
    "Test Value": "≤ 5.30"
  },
  {
    "Structure Smiles String": "CC(C)Oc1ccccc1Cn1c(=O)ccc2cnc(Nc3ccc(N4CCN(C)CC4)cc3)nc21",
    "Test Value": "> 6.00"
  },
  {
    "Structure Smiles String": "CCn1c(=O)c(-c2cccc(S(C)(=O)=O)c2)cc2cnc(Nc3ccc(N4CCN(C)CC4)cc3)nc21",
    "Test Value": "≤ 5.30"
  }
]

Report the value of pIC50 obtained on Serine/threonine-protein kinase PAK 4 (Homo sapiens, UniProt O96013) for `CCn1c(=O)c(-c2ccc(-c3noc(C)n3)cc2F)cc2cnc(Nc3ccc(C4CCN(C)CC4)cc3)nc21` . ≤ 5.30

* * *

Below are IC50 values for Serine/threonine-protein kinase PAK 4 (Homo sapiens, UniProt O96013) collected from several publications.

Look over these answered cases.
[
  {
    "Structure Smiles String": "Cc1nc(-c2cc(Cl)c(-c3cc4cnc(Nc5ccc(C6CCN(C)CC6)cc5)nc4n(C)c3=O)cc2F)no1",
    "Test Value": "≥ 5 µM"
  },
  {
    "Structure Smiles String": "CCn1c(=O)c(-c2ccc(-c3cccnc3C)cc2Cl)cc2cnc(Nc3ccc(CCN4CCCC4)cc3)nc21",
    "Test Value": "≥ 5 µM"
  },
  {
    "Structure Smiles String": "CC#Cc1cc2cnc(Nc3ccc(N4CCN(C)CC4)cc3)nc2n(Cc2ccccc2C(F)(F)F)c1=O",
    "Test Value": "0.5 to 5 µM"
  },
  {
    "Structure Smiles String": "CCn1c(=O)c(-c2ccc(-c3ccoc3)cc2Cl)cc2cnc(Nc3ccc(N4CCN(C)CC4)cc3)nc21",
    "Test Value": "≥ 5 µM"
  },
  {
    "Structure Smiles String": "CN1CCN(c2ccc(Nc3ncc4ccc(=O)n(Cc5c(O)cccc5Br)c4n3)cc2)CC1",
    "Test Value": "< 1 µM"
  },
  {
    "Structure Smiles String": "CN1CCN(c2ccc(Nc3nccc(-c4ccc(N(C)CCN)nc4)n3)cc2)CC1",
    "Test Value": "1 to 10 µM"
  },
  {
    "Structure Smiles String": "CCn1c(=O)c(-c2ccc(-c3noc(C)n3)cc2Cl)cc2cnc(Nc3ccc(N4CCNCC4)cc3)nc21",
    "Test Value": "0.05 to 0.5 µM"
  },
  {
    "Structure Smiles String": "CCn1c(=O)c(-c2ccc(-c3ccc(C)nc3)cc2Cl)cc2cnc(Nc3ccc(N4CCN(C)CC4)cc3)nc21",
    "Test Value": "0.5 to 5 µM"
  }
]

Find the measured IC50 of `CCn1c(=O)c(-c2ccc(C3CC3)cc2)cc2cnc(Nc3ccc(N4CCN(C)CC4)cc3)nc21` with Serine/threonine-protein kinase PAK 4 (Homo sapiens, UniProt O96013) as test system. ≥ 5 µM

Provide the reported IC50 (system: Serine/threonine-protein kinase PAK 4 (Homo sapiens, UniProt O96013)) for `CC(=O)N(C)c1ncccc1-c1ccc(Cl)c(-c2cc3cnc(Nc4ccc(C5CCN(C)CC5)cc4)nc3n(C)c2=O)c1` ≥ 5 µM
